STUDY SYSTEM: Casp6 (Homo sapiens, UniProt P55212, INS179NQTEKLDTNITEVD)
Construct: generating mainly large subunit with a linker (LS-L), small subunit (SS), and a minor amount of large subunit (LS); His (C)
Sequence (P55212 24-193 limits assumed, stated change not applied): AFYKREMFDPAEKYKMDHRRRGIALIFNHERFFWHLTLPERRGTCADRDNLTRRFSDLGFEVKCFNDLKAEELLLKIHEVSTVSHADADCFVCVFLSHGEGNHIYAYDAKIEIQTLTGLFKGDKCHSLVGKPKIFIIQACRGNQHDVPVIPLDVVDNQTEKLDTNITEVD
Sequence (P55212 194-293 limits assumed, stated change not applied): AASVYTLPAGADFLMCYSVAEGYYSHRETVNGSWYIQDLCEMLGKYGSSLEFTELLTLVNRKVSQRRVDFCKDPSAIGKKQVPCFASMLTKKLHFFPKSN
PROCEDURE TEXT: Determination of inhibition mechanism and Ki (Michaelis-Menten, Lineweaver-Burk plots)
MEASUREMENT PARAMETERS: from plot of Lineweaver-Burk slopes vs inhibitor concentration, Casp6, Ac-VEID-AFC; read-out: Ki (dissociation constant)
ASSAY METRIC: pKi
Convention used: pKi is expressed as -log10 of the molar concentration.

IN: Item under review: COC(=O)c1cc(CNC(=O)C2Cc3ccccc3O2)cc(NC(=O)c2ccco2)c1 (stereo not shown) . Reported pKi?
OUT: 5.28
